Reference for the values: PubChem BioAssay (NCI)

Entries and their growth inhibition values follow.
- test_description: NCI Yeast Anticancer Drug Screen. Data for the rad50 strain (AID 155);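 further: 0% = growth of vehicle-only cultures of the same strain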
- assay_conditions: S. cerevisiae rad50 strain growth inhibition; at 50.0 µM; stronger effect = higher value
Compounds without any hit were thinned out: in the full panel of roughly 79,000, 15% have a hit.
Answer format: numeric, % implied, no suffix.

Please review the entries below; each comes with its answer.
compound	uom	growth inhibition
CC(C)N(CCC#N)C(=S)Nc1cccc2ccccc12	%	17.1
CC1CCC(=N\O)/C(=N/O)C1 (stereo not drawn)	%	5.9
CCC(=O)OCCC(C)C	%	35.4
C[N+](C)(C)CCc1ccc2ccccc2c1	%	12.2
N#CC(C#N)SCc1ccccc1	%	17.1

Prompt: // query growth inhibition value for entry CN(C)C12CCCCCC1S(=O)(=O)C2 (stereo not drawn)
Response: -0.05

Prompt: Repeat with Cc1ccc2oc(=O)c3c(O)c4cccc(OC5OC(C)C6O[C@@H](c7ccccc7)OC6C5OC5OC(C)C(O)C(O)C5O)c4c4oc(=O)c1c2c34 (stereo partly drawn)
Response: 87.2

Prompt: Repeat with CCCc1c(-c2ccccc2)nc(N)nc1-c1nc(N)nc(-c2ccccc2)c1CCC
Response: -1.75

Prompt: Repeat with COc1cc([N+](=O)[O-])c(C(=O)O)c(C(=O)O)c1OC
Response: 9.8

Prompt: Repeat with CC1=C(C(=O)Nc2ccccc2C)C(c2ccc(Cl)cc2)C(C(=O)Nc2ccccc2C)=C(C)N1
Response: -3.3

Prompt: Repeat with O=C(c1ccc(F)cc1)c1ccc([N+](=O)[O-])cc1
Response: 8.85

Prompt: Repeat with O=C(O)CNC(=O)Cc1ccccc1
Response: -29.8

Prompt: Repeat with CCN(CC)CCNc1cc2ccccc2c2sc3ccccc3c(=O)c12
Response: 98.5
